- Tested on: MDA-MB-468 breast
- assay summary: NCI tumour cell line growth inhibition, 48 h
Overview of reported GI50 across a group of compounds:

>>> reported_value("CC(=O)[O][Hg][c]1c(N)c(C)cc(C)c1F")
"1340 nM"
>>> reported_value("CN(C)CCCNC1=C(Cl)C(=O)c2ccccc2C1=O")
"1590 nM"

Prompt: State the recorded GI50 for this entry: "Clc1ccc2c(N/N=C/c3c[nH]c4ccccc34)ccnc2c1"
Response: 1010 nM

Prompt: "O=C(CCl)N1c2ccccc2Oc2ccc3ccccc3c21" , same question.
Response: 973 nM

Prompt: COc1ccc([C@H]2C(C(=O)c3ccc(Cl)cc3)C3(N[C@@H]2c2ccccc2)C(=O)Nc2ccc(Br)cc23)cc1 (stereo partly specified) , same question.
Response: 10200 nM

Prompt: "COc1ccc(-c2cc(-c3ccc(Nc4nc(Nc5ccccc5)nc(Nc5ccc(Cl)cc5)n4)cc3)nc(N)c2C#N)cc1" , same question.
Response: 1150 nM

Prompt: "CNC(=O)c1ccccc1Nc1nc(Nc2ccc(N3CCOCC3)cc2OC)ncc1Cl" , same question.
Response: 1490 nM

Prompt: "O=C(CN1CCN(c2cc3c(cc2F)c(=O)c(C(=O)N/N=C/c2ccccc2O)cn3C2CC2)CC1)N/N=C\c1ccccc1O" , same question.
Response: 599 nM

Prompt: "Cn1ccnc1C(=O)/C=C/c1ccc(CC(=O)Nc2ccc(Br)cc2)cc1" , same question.
Response: 2700 nM

Prompt: C=C(CNCCO)[C@@H]1CC[C@]2(CO)CC[C@]3(C)[C@H](CC[C@@H]4[C@@]5(C)CCC(N)C(C)(C)[C@@H]5CC[C@]43C)[C@@H]12 (stereo partly specified) , same question.
Response: 1670 nM

Prompt: CCOc1ccccc1-n1c(CN2CCN(C(=O)COc3ccc(CNCCCCCCN4C5CCCC4CC(OC(=O)Nc4cc(C)ccc4OC)C5)cc3)CC2)nc2ccccc2c1=O (stereo unspecified) , same question.
Response: 786 nM
